test system: RARa:RXR (NR concentration 270 nM, RXRa partner concentration 90 nM); assay: PBM binding z-score (relative to random genomic background probes); higher = stronger binding; sequences stand for … in GC…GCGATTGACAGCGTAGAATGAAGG
// reported PBM binding z-score for each item listed
Form: value (number only, do not type unit).

Solved entries:
primary.sequence: CGAACTAGGTCAAAGCACAGTGAAAGGCGACGTA
study.system: RARa:RXR (NR concentration 270 nM, RXRa partner concentration 90 nM)
PBM binding z-score: 1.71

primary.sequence: GATACAGGGTCATCTAGAGGCCAGAGTATGGAAA
study.system: RARa:RXR (NR concentration 270 nM, RXRa partner concentration 90 nM)
PBM binding z-score: 6.28

primary.sequence: TCGAGTAGGTTACGGGGCCATTCAGGGATGAAGA
study.system: RARa:RXR (NR concentration 270 nM, RXRa partner concentration 90 nM)
PBM binding z-score: 0.892

primary.sequence: CTATGTAGGTTAAGGGGGTCATTCACTTTGAAAG
study.system: RARa:RXR (NR concentration 270 nM, RXRa partner concentration 90 nM)
PBM binding z-score: 5.77

primary.sequence: GGAACGAGCGCAAAGTTGATAGCATCTGTCGACG
study.system: RARa:RXR (NR concentration 270 nM, RXRa partner concentration 90 nM)
PBM binding z-score: -0.723

Task item: Recorded PBM binding z-score of CCGACTGGGGCAAAGGTTACGATACTCAGTACGA , please.
Reply: 4.39

Task item: Recorded PBM binding z-score of TAGAGTAGGTTACGGGGGCATTCAGGGATGAAGA , please.
Reply: 3.35

Task item: Recorded PBM binding z-score of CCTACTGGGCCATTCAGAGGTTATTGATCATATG , please.
Reply: 0.877

Task item: Recorded PBM binding z-score of CGTACTAGGTCAAAGGACAGTGAAAGGCGACGTA , please.
Reply: 2.27

###

tested on: VDR homodimer (NR concentration 270 nM); assay: PBM binding z-score (relative to random genomic background probes); higher = stronger binding; sequences stand for … in GC…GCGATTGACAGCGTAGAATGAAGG
measure.name: PBM binding z-score

Solved entries:
primary.sequence: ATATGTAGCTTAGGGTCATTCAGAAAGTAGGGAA
PBM binding z-score: 3.71
//
primary.sequence: CTATGTAGGTTAAGGGGGTCATTCATTTTGAAAG
PBM binding z-score: 5.01
//
primary.sequence: TCAAGTAGGTTACGGGGGCATTCAGGGATGAAGA
PBM binding z-score: 4.17
//
primary.sequence: GATACAGGGTCAATGCCAGAGTACGCGTATTGAT
PBM binding z-score: 2.31
//
primary.sequence: CCTTACGGGTCCCTGACAGGTTATAGCATTTGGA
PBM binding z-score: 0.0432
//
primary.sequence: CCTACTGGGCCAATAAGGTCATTGATGCCGATAA
PBM binding z-score: 2.76

Task item: Recorded PBM binding z-score of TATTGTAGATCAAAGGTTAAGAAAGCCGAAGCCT , please.
Reply: 0.214

Task item: Recorded PBM binding z-score of TTACCAAGGTGAAAGGTCATTGATGCACGCCTTG , please.
Reply: 3.32

Task item: Recorded PBM binding z-score of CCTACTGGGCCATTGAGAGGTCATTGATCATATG , please.
Reply: 3.78

Task item: Recorded PBM binding z-score of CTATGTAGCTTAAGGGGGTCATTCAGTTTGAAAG , please.
Reply: 6.05

Task item: Recorded PBM binding z-score of CAAACTAGGTCAAGAGGTCAAAGGCCGCTTCCCG , please.
Reply: 4.46

Task item: Recorded PBM binding z-score of CCTCGGAGGACAGAAGGTCAGATCTGTCCGCTTT , please.
Reply: 0.21

Task item: Recorded PBM binding z-score of ATCGAAGGGTCGAAGGTGAGTATACCCACCCGAA , please.
Reply: 0.519

Task item: Recorded PBM binding z-score of CGAACTAGGTCAAAGGAGAGTGAAAGGCGACGTA , please.
Reply: 0.0165

Task item: Recorded PBM binding z-score of CGAACTAGGTCACCATGACAGTGAAGAGGTTGGA , please.
Reply: 0.264

Task item: Recorded PBM binding z-score of CCGAGTAGGTTACGAGGGGGCATGCAGTGCGAAT , please.
Reply: 2.6

Task item: Recorded PBM binding z-score of CGAACTAGGTCACCAGGACAGTGGAGAGGTTGGA , please.
Reply: 0.74

Task item: Recorded PBM binding z-score of GTACCAAGGTGAATAGGTCGTTGATGAGTAGGCG , please.
Reply: 0.496

Task item: Recorded PBM binding z-score of CTATGTAGGTTAAGGGGGTCATTCTGTTTGAAAG , please.
Reply: 4.58

Task item: Recorded PBM binding z-score of CCTGCTAGTTCATGGTCAGCTAATCTACAGTATG , please.
Reply: 1.09

Task item: Recorded PBM binding z-score of CCTACTGGGCCACGAAAGGTGATTGATTCAGTGA , please.
Reply: -0.289

###

tested on: RARg homodimer (NR concentration 270 nM); assay: PBM binding z-score (relative to random genomic background probes); higher = stronger binding; sequences stand for … in GC…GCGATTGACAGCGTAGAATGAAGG
// reported PBM binding z-score for each item listed

primary.sequence: TAGCCTAGGTCAGATCGGGCCAGTCTACGCTATA
result: 3.36
//
primary.sequence: CCTACTGGGCCATTCAGAGGACATTGATCATATG
result: 0.53
//
primary.sequence: GCTAGTGGGTCAGTAAAAGGTCACACACCGGTCG
result: 6.65
//
primary.sequence: CGAACTACGTCACCAGGACAGTGAAGAGGTTGGA
result: 0.277
//
primary.sequence: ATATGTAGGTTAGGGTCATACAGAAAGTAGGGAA
result: 3.47
//
primary.sequence: CCTAGTTGGTCAGGAGGTCACAAACCGGATATGA
result: 4.1
//
primary.sequence: GCTTACGGGTCAAAGGTTACAGCATGAATAGAAT
result: 5.1
//
primary.sequence: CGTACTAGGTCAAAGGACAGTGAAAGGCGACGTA
result: 4.76

Task item: Recorded PBM binding z-score of TAGCCTCGGTCATTGGGCCAGTATAGTACGCATC , please.
Reply: 2.62

Task item: Recorded PBM binding z-score of ATCTCTAGGTAACAAGGTCAGTGAAAGAGAGGAC , please.
Reply: 3.28

Task item: Recorded PBM binding z-score of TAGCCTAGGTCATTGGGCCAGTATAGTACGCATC , please.
Reply: 4.22

###

system: VDR:RXRa (NR concentration 270 nM, RXRa partner concentration 90 nM); assay: PBM binding z-score (relative to random genomic background probes); higher = stronger binding; sequences stand for … in GC…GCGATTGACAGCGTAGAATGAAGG
// reported PBM binding z-score for each item listed
Form: value (number only, do not type unit).

Task item: Which measured PBM binding z-score belongs to ATATGTAGGTTAAGGGTCATGCAGGTTGGTTCGC , tested on VDR:RXRa (NR concentration 270 nM, RXRa partner concentration 90 nM)?
Reply: 5.46

Task item: Which measured PBM binding z-score belongs to TCCAGTAGGTTACGGGGGCATTCAGGGATGAAGA , tested on VDR:RXRa (NR concentration 270 nM, RXRa partner concentration 90 nM)?
Reply: 4.04

###

test system: PPARg:RXRa 90nM:30nM, anti-RXR (NR concentration 90 nM, RXRa partner concentration 30 nM); experiment: PBM binding z-score (relative to random genomic background probes); higher = stronger binding; sequences stand for … in GC…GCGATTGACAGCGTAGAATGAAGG
Decide using PBM binding z-score: a value greater than or equal to 4 is y, a smaller one is n.

primary.sequence: CTATGTAGGTTAAGGGCGTCATTCAGTTTGAAAG
study.system: PPARg:RXRa 90nM:30nM, anti-RXR (NR concentration 90 nM, RXRa partner concentration 30 nM)
assigned.category: y
--
primary.sequence: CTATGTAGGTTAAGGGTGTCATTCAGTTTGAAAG
study.system: PPARg:RXRa 90nM:30nM, anti-RXR (NR concentration 90 nM, RXRa partner concentration 30 nM)
assigned.category: y
--
primary.sequence: CCTAGATGGTCAGGAGGTCACACACCGGATATGA
study.system: PPARg:RXRa 90nM:30nM, anti-RXR (NR concentration 90 nM, RXRa partner concentration 30 nM)
assigned.category: n

Task item: Could you verify whether the entry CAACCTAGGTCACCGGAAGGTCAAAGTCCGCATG shows PBM binding z-score of no less than 4?
Reply: y

Task item: Could you verify whether the entry CGAACTAGGTCACCAGGGCAGTGAAGAGGTTGGA shows PBM binding z-score of no less than 4?
Reply: y

Task item: Could you verify whether the entry CCGAGTAGGTTACGAGAGGGCATTCAGTGCGAAT shows PBM binding z-score of no less than 4?
Reply: n

Task item: Could you verify whether the entry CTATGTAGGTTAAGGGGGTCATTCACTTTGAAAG shows PBM binding z-score of no less than 4?
Reply: y

Task item: Could you verify whether the entry AGAATGAGGTTACACGTAGATCAGGGAAGAAAGT shows PBM binding z-score of no less than 4?
Reply: n

Task item: Could you verify whether the entry CAAACTAGGTCACAGAGGTCAAACTCCGTGCGTA shows PBM binding z-score of no less than 4?
Reply: y

Task item: Could you verify whether the entry CTCGAAAGGGCGTGCTCAGGTGAGTATACCAAAC shows PBM binding z-score of no less than 4?
Reply: n
